# credit: PubChem BioAssay (NCI)

- Tested on: MDA-MB-468 breast
- experimentSummary: NCI-60 one-dose screen, 48 h (100 = growth as untreated, 0 = no growth, -100 = all killed)
- measurementContext: 10 µM unless noted
Compounds without any hit were thinned out: in the full panel of roughly 83,000, 20% have a hit.
Parameter class (string): assigned from measured growth. Ranges: bin A: < 10%; bin B: ≥ 10% and < 90%; bin C: ≥ 90%

Examples from the recorded data:
[
  {
    "compound": "CC(=O)Nc1ccc(C(=O)/C=C/c2ccc(N(C)C)cc2)cc1",
    "measuredTarget": "MDA-MB-468 breast",
    "assignedLabel": "bin C"
  },
  {
    "compound": "O=C(O)C1CCCCN1c1nc(Cl)nc(Cl)n1 (stereo not drawn)",
    "measuredTarget": "MDA-MB-468 breast",
    "assignedLabel": "bin C"
  },
  {
    "compound": "COC(=O)/C=C/C(=O)c1cc(C)cc(C)c1O",
    "measuredTarget": "MDA-MB-468 breast",
    "assignedLabel": "bin C"
  },
  {
    "compound": "O=C(Cc1ccc(NC(=O)c2cccc(Cl)c2)cc1)NCc1ccccc1",
    "measuredTarget": "MDA-MB-468 breast",
    "assignedLabel": "bin B"
  },
  {
    "compound": "CC(=O)NCNC(C)=O",
    "measuredTarget": "MDA-MB-468 breast",
    "assignedLabel": "bin C"
  }
]

Task: Band for "CN(C)CCCOc1cccc(NC2=C(Cl)C(=O)C(Nc3cccc(OCCCN(C)C)c3)=C(Cl)C2=O)c1" ?
Output: bin A

Task: Which band does "N#Cc1nc(-c2cccc(Br)c2)cc(-c2ccc(Nc3nc(N4CCCCC4)nc(N4CCCCC4)n3)cc2)c1N" fall in?
Output: bin A

Task: // bin(item) where item = "COc1ccc(N/N=C/c2c(-c3ccc(S(C)(=O)=O)cc3)nc3ccccn23)cc1"
Output: bin B

Task: Category of "COc1cc(/C=C\c2cc(/C=C\c3ccc(O)c(OC)c3)n(C(=O)Nc3ccc(C(F)(F)F)cc3)n2)ccc1O" , please.
Output: bin B
